Biological target: EGFR (human) (UniProt P00533)
Sequence (P00533 whole entry, looked up): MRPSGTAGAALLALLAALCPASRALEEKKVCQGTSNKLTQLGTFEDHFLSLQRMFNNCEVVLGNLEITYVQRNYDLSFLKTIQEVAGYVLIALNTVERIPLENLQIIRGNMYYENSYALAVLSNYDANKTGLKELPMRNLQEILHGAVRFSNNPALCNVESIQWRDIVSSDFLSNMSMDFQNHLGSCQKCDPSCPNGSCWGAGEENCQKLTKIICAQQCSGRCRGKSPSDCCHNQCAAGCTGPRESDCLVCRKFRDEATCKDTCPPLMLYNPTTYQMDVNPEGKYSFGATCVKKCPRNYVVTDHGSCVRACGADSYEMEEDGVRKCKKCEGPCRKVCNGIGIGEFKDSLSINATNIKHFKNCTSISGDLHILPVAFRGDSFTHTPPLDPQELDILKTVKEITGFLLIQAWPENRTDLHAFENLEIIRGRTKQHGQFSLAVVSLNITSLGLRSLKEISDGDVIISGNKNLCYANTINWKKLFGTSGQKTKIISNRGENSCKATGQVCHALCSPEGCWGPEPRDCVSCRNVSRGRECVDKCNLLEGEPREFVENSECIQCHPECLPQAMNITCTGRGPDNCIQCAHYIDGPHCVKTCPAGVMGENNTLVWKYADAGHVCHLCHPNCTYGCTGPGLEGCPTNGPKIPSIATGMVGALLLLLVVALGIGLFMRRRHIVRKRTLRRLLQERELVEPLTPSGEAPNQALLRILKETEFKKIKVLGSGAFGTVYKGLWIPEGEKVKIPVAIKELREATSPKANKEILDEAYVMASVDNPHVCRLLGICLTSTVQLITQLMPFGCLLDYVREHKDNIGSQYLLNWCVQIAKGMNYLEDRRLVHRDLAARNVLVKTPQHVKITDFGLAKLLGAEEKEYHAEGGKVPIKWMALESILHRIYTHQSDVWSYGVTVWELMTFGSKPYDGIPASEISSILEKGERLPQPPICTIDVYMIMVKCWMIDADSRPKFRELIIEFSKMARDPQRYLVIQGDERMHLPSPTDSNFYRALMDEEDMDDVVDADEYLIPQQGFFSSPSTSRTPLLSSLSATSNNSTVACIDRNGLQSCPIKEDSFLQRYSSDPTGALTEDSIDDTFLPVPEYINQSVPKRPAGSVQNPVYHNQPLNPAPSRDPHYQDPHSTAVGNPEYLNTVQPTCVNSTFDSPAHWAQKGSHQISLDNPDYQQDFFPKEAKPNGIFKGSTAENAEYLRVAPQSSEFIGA
Conditions: a431
assay-endpoint: IC50

Solved entries:
{"query-smiles": "Cn1c(NCc2cccc(C(F)(F)F)c2)cc(=O)n(C)c1=O", "IC50": "> 50 µM"}
{"query-smiles": "O=C(Cc1ccc(F)cc1)Nc1cc(SC[C@@H](O)CO)cc([N+](=O)[O-])c1", "IC50": "28.8 µM"}

Identify measured IC50 associated with `CCOc1ccc(-c2cc(C(F)(F)F)c(C#N)c(SCC(=O)NCC(=O)O)n2)cc1` > 50 µM

###

Quick record: pIC50, CDK2 (human) (UniProt P24941).
Numbers only, as −log10 of the molar value.

{"query-smiles": "O=C1Nc2ccc3ncsc3c2C1=NNc1ccc(S(=O)(=O)O)cc1", "pIC50": 6.27}

We next turn to a different compound, shown below.
Look up and report measured pIC50 for this entry: `N=C(N)NS(=O)(=O)c1ccc(NC2=Cc3ccc(C(=O)c4c(Cl)cccc4Cl)cc3C2)cc1` 6.60

###

Biological target: EGFR (human) (UniProt P00533)
assay-endpoint: IC50

// Input: `COc1cc2c(Nc3ncc(CCNC(=O)c4cccc(F)c4)s3)ncnc2cc1OCCCN1CCCC1` . Output its IC50 only. > 100 µM

###

Target: UniProt:Q16539
Assay: MAPK14 Binding Inhibition
assay-endpoint: IC50

State its IC50 for this compound: `COc1cc(-c2c(-c3ccc(F)cc3)ncn2C2CCNCC2)ccn1` < 50 µM

###

Target: EGFR (human) (UniProt P00533)
Settings: hn5
Consider the following molecules; for each one, report its log10(IC50).
Response schema: value (number) is log10 of IC50 in units of nM.

Record excerpt, results attached:
{"query-smiles": "CS(=O)(=O)CCNCc1nc(-c2ccc3ncnc(Nc4ccc(OCc5ccccc5)cc4)c3c2)cs1", "log10(IC50)": 3.20}
{"query-smiles": "CS(=O)(=O)CCNCc1nc(-c2ccc3ncnc(Nc4ccc(F)c(Cl)c4)c3c2)cs1", "log10(IC50)": 2.76}
{"query-smiles": "CS(=O)(=O)CCNCc1nc(-c2ccc3ncnc(Nc4ccc(OCc5cccc(F)c5)c(Cl)c4)c3c2)cs1", "log10(IC50)": 1.90}
{"query-smiles": "CS(=O)(=O)CCNCc1nc(-c2ccc3ncnc(Nc4ccc(OCc5ccccc5)c(Cl)c4)c3c2)cs1", "log10(IC50)": 2.36}

Now look at this one.
// Input: `CS(=O)(=O)CCNCc1nc(-c2ccc3ncnc(Nc4ccc5c(cnn5Cc5ccccc5)c4)c3c2)cs1` . Output its log10(IC50) only. 2.04

###

Biological target: EGFR (UniProt P00533)
Sequence (P00533 whole entry, looked up): as above
assay-endpoint: pIC50
Numbers only, as −log10 of the molar value.

Tell me measured pIC50 for `COC(=O)c1ccc(NCc2cc(O)ccc2O)cc1` please. 6.60

###

Target: MAPK14 (murine)
Test: Inhibition of MAPK14 Kinase Assay
Mark criterion met only for IC50 values smaller than 500 nM; exact matches and larger values are criterion not met.

Answered cases to consult:
{"molecule": "COc1ccc(C(=O)N2CCC(Cc3cccc(NC(=O)Nc4cc(C(C)(C)C)nn4-c4ccc(C)cc4)c3)CC2)c(OC)c1", "category": "criterion met"}
{"molecule": "COc1ccc(C(=O)N2C3CCC2CC(Cc2ccc(NC(=O)Nc4cc(C(C)(C)C)nn4-c4ccc(C)cc4)cc2)C3)c(OC)c1 (stereo not given)", "category": "criterion not met"}
{"molecule": "COc1ccc(C(=O)N2C3CCC2CC(Cc2ccccc2NC(=O)Nc2cc(C(C)(C)C)nn2-c2ccc(C)cc2)C3)c(OC)c1 (stereo not given)", "category": "criterion not met"}

Lab note: next molecule to report on.
Answer whether the molecule `COc1ccc(C(=O)N2CCC(Cc3ccc(NC(=O)Nc4cc(C(C)(C)C)nn4-c4ccc(C)cc4)cc3)CC2)c(OC)c1` has IC50 strictly less than 500 nM criterion met

###

Target: PIK3CB;PIK3CD;PIK3CA (human) (UniProt O00329)
Sequence (O00329 whole entry, looked up): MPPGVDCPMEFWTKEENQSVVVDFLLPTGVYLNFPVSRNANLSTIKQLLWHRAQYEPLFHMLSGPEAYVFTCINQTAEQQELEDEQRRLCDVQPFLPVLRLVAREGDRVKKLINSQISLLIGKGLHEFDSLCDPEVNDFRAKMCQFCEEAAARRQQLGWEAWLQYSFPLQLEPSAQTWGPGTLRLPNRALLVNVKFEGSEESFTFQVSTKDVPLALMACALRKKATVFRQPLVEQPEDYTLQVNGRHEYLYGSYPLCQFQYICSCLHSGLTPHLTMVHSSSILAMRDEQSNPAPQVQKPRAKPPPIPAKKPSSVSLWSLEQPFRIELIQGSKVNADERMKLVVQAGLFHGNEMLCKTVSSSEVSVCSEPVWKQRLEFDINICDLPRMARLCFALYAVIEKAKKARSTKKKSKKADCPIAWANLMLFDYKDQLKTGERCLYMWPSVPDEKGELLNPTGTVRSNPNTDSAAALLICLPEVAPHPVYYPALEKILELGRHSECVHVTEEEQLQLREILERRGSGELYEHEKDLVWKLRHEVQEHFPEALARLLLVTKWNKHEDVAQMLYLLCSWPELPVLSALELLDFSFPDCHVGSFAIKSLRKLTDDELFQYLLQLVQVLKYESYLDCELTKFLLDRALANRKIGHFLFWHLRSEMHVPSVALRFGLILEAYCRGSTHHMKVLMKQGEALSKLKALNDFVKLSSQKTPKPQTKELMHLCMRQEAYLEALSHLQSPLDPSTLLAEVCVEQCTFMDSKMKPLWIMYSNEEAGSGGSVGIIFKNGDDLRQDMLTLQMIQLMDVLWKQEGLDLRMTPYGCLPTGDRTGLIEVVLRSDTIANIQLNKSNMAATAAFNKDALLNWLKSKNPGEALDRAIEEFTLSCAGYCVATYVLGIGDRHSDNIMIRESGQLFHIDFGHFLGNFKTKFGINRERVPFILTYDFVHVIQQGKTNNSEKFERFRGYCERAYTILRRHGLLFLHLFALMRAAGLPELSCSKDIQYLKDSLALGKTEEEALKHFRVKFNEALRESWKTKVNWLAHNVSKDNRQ
Test: Assessment of PI3K Kinase Activity
assay-endpoint: pIC50
One number for each entry, as −log10 of the molar value.

{"query-smiles": "CS(=O)(=O)Cc1cc(N2CCOCC2)nc(-c2ccc(NS(C)(=O)=O)cc2)n1", "pIC50": 4.27}

Alright, here's another compound for you.
Please list pIC50 recorded for the compound `O=S(=O)(CCc1cccc(C(F)(F)F)c1)Cc1cc(N2CCOCC2)nc(-c2ccccn2)n1` 5.17

###

Target: CDK2 (human)
Test: Cell-Based Assay
Conditions: a 549
assay-endpoint: IC50 (µM)
Answers are plain numbers, in µM.

# return IC50 for `C[C@@H](Nc1nc(N[C@H]2CC[C@H](N)CC2)nc2c1ncn2C1CCCC1)c1ccccc1` , test system: CDK2 (human) 6.1

###

Quick note: these are pIC50 numbers for system: EGFR (UniProt P00533)
Answers are plain numbers, as −log10 of the molar value.

{"query-smiles": "CC1=CCC[C@H]2[C@](C)(CC3=C(O)C(=O)C=C(N[C@H](C(=O)O)C(C)C)C3=O)[C@@H](C)CC[C@]12C", "assay-target": "EGFR (UniProt P00533)", "pIC50": 3.60}

Consider now this further compound.
Report pIC50 under test system EGFR (UniProt P00533) for `CC1=CCC[C@H]2[C@](C)(CC3=C(O)C(=O)C=C(N[C@@H](C(=O)O)C(C)C)C3=O)[C@@H](C)CC[C@]12C` . 3.70

###

Biological target: UniProt P00533
Conditions: lox-imvi,malme-3m,sk-mel-5
pIC50: −log10 of the molar value.
assay-endpoint: pIC50

Give the reported value of pIC50 for this record: `CNc1cc2ncnc(Nc3cccc(Br)c3)c2cc1N` 5.00 to 6.00

###

Provide the recorded pIC50 for the entries that follow.
Biological target: CDK2 (UniProt P24941)
Assay: Enzyme Assay
One number for each entry, as −log10 of the molar value.

{"query-smiles": "C[C@H](C(=O)Nc1cc(C2CC2)[nH]n1)c1ccc(N2CCCC2)cc1", "recorded-number": 7.10}
{"query-smiles": "N[C@H](COc1cncc(-c2cc3cn[nH]c3cn2)c1)Cc1c[nH]c2ccccc12", "recorded-number": 8.22}
{"query-smiles": "CC(C)n1cnc2c(NCc3ccc(-c4ccsc4)cc3)nc(N[C@H]3CC[C@H](N)CC3)nc21", "recorded-number": 6.30}

Provide reported pIC50 for each item, in the same order as listed.
1. Cc1nc(NC(=O)CCl)sc1-c1ccnc(Nc2ccc(F)cc2)n1
2. CN(CCc1c[nH]c2ccccc12)C(=O)c1cccc(Br)c1
3. NC(=O)c1cc(N)c(C(=O)c2c(N)nc3ccc(C(=O)c4c(Cl)cccc4Cl)cn23)c(F)c1
4. COc1ccc(-c2[nH]nc3c2C(=O)c2ccccc2-3)cc1
5. O=S1(=O)C=Cc2cnc(Nc3ccc(N4CCNCC4)cc3)nc2N1C1CCCC1
6. COc1ccc(OC)c(CCC(=O)N2CCC(Nc3nc(N[C@H]4CC[C@H](N)CC4)nc4c3ncn4C3CCCC3)CC2)c1
7. CN(CCc1c[nH]c2ccccc12)C(=O)c1ccccc1Br
8. Nc1ncc(CNc2cc(-c3ccccc3Cl)cn3c(Br)cnc23)cn1

1. 6.64
2. 3.23
3. 7.34
4. 4.59
5. 6.84
6. 7.24
7. 3.20
8. 7.12

###

Target: PIK3CD (Human)
Experiment: Enzyme Assay
Exercise: for every item that follows, state its recorded pKi.
Answers are plain numbers, as −log10 of the molar value.

# annotated cases, reported pKi shown
{"query-smiles": "Cc1c(-n2ccccc2=O)nc2cc(F)cc(F)c2c1N1CC2(CCOCC2)c2ncc(N3CCOCC3)cc21", "assay-target": "PIK3CD (Human)", "pKi": 8.33}
{"query-smiles": "CCNC(=O)Nc1ccc(-c2nc(N3CCOC[C@H]3C)c3c(ncn3C)n2)cc1", "assay-target": "PIK3CD (Human)", "pKi": 5.40}

Consider now this further molecule.
Look up and report measured pKi for this entry: `CCNC(=O)Nc1ccc(-c2nc(N3CCCOCC3)c3c(ncn3C)n2)cc1` 5.14

###

Target: EGFR (UniProt P00533)
assay-endpoint: pIC50
One number for each entry, as −log10 of the molar value.

Specify the recorded pIC50 for `Brc1cccc(Nc2ncnc3ccccc23)c1` , system: EGFR (UniProt P00533). 6.90

###

Biological target: EGFR (human)
Assignment: determine reported IC50 for the given compounds.
Answers are plain numbers, in nM.

{"query-smiles": "O=[N+]([O-])c1cccc(Nc2ncnc3sc4c(c23)CCCC4)c1", "assay-target": "EGFR (human)", "units-label": "nM", "IC50": 2.59}
{"query-smiles": "c1ccc(Nc2ncnc3sc4c(c23)CCCC4)cc1", "assay-target": "EGFR (human)", "units-label": "nM", "IC50": 10.5}
{"query-smiles": "Oc1cccc(Nc2ncnc3sc4c(c23)CCCC4)c1", "assay-target": "EGFR (human)", "units-label": "nM", "IC50": 7.89}
{"query-smiles": "Brc1ccc(Nc2ncnc3sc4c(c23)CCCC4)cc1", "assay-target": "EGFR (human)", "units-label": "nM", "IC50": 50.3}

Would you mind listing IC50 for each of the following compounds?
1. COc1cccc(Nc2ncnc3sc4c(c23)CCCC4)c1
2. Clc1cccc(Nc2ncnc3sc4c(c23)CCCC4)c1
3. Oc1ccc(Nc2ncnc3sc4c(c23)CCCC4)cc1
4. FC(F)(F)c1cccc(Nc2ncnc3sc4c(c23)CCCC4)c1

[34, 1.97, 27.4, 35.5]

FYI, the data here is from the Kinase Knowledgebase extract (Sharma et al. 2016).
